Source of measurements: PubChem BioAssay AID1963442

Test system: MPNST complex spheroid with HUVEC/MSC, growth, % test/control
Experiment: Anticancer human tumor MPNST cell line growth inhibition [Asc];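 also: compounds left on spheroids for seven days before reading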
Conditions: second compound 0.949 µM; first compound 10 µM; hits give low values

>  <MOLECULE>
O=C(c1cc(Cc2n[nH]c(=O)c3ccccc23)ccc1F)N1CCN(C(=O)C2CC2)CC1 + CCN1C(C(=O)NC23CCC(C(=O)O)(CC2)CC3)C(c2cccc(Cl)c2F)C2(C(=O)Nc3cc(Cl)ccc32)C12CCCCC2

>  <ASSAYED_TARGET>
MPNST complex spheroid with HUVEC/MSC, growth, % test/control

>  <viability, T/C, %>
78.2

$$$$
>  <MOLECULE>
C#Cc1c(F)ccc2cc(O)cc(-c3ncc4c(N5CC6CCC(C5)N6)nc(OCC56CCCN5CC(F)C6)nc4c3F)c12 (centres undefined) + CCN1C(C(=O)NC23CCC(C(=O)O)(CC2)CC3)C(c2cccc(Cl)c2F)C2(C(=O)Nc3cc(Cl)ccc32)C12CCCCC2

>  <ASSAYED_TARGET>
MPNST complex spheroid with HUVEC/MSC, growth, % test/control

>  <viability, T/C, %>
52.5

$$$$
>  <MOLECULE>
C=CC(=O)N1CCN(c2nc(=O)n(-c3c(C)ccnc3C(C)C)c3nc(-c4c(O)cccc4F)c(F)cc23)C(C)C1 (centres undefined) + CCN1C(C(=O)NC23CCC(C(=O)O)(CC2)CC3)C(c2cccc(Cl)c2F)C2(C(=O)Nc3cc(Cl)ccc32)C12CCCCC2

>  <ASSAYED_TARGET>
MPNST complex spheroid with HUVEC/MSC, growth, % test/control

>  <viability, T/C, %>
117

$$$$
>  <MOLECULE>
C=C(F)C(=O)N1CCN(c2nc(OCC3CCCN3C)nc3c2CCN(c2cccc4cccc(Cl)c24)C3)CC1CC#N (centres undefined) + CCN1C(C(=O)NC23CCC(C(=O)O)(CC2)CC3)C(c2cccc(Cl)c2F)C2(C(=O)Nc3cc(Cl)ccc32)C12CCCCC2

>  <ASSAYED_TARGET>
MPNST complex spheroid with HUVEC/MSC, growth, % test/control

>  <viability, T/C, %>
57

$$$$
